Below, each entry is listed with its recorded Residual activity (%) RNase H.
# Test System: RNase H activity of HIV reverse transcriptase (Human immunodeficiency virus type 1 group M subtype B, UniProt P03366)
# Construct: 2.5 nM of the p51/p66 RT heterodimer in the assay; made in house
# Procedure Details: Fluorescence (FRET)-based RNase H assay of HIV reverse transcriptase
# Type: biochemical, HIV-1
# Run Conditions: 10 μM inhibitor concentration; activity in presence / in absence of analog x 100
Please respond with the number in % and leave the unit unwritten.

Which value of Residual activity (%) RNase H has been reported for Cc1c(C(=O)C(C)(C)C)cc2n(c1=O)Cc1c-2nc2ccc(F)cc2c1[Si](C)(C)C(C)(C)C in the records?
79

Which value of Residual activity (%) RNase H has been reported for CCCCCCc1c2c(nc3ccccc13)-c1cc(C(O)C(C)(C)C)c(C)c(=O)n1C2 (centres unmarked) in the records?
91

Which value of Residual activity (%) RNase H has been reported for Cc1c(C(=O)C(C)(C)C)cc2n(c1=O)Cc1c-2nc2ccc(F)cc2c1[Si](C)(C)C in the records?
100

---

# Test System: RNase H activity of HIV reverse transcriptase (Human immunodeficiency virus type 1 group M subtype B, UniProt P03366)
# Construct: 2.5 nM of the p51/p66 RT heterodimer in the assay; made in house
# Procedure Details: Fluorescence (FRET)-based RNase H assay of HIV reverse transcriptase
# Assay type: biochemical, HIV-1
# Run Conditions: 10 μM inhibitor concentration; activity in presence / in absence of analog x 100
Property Name: Residual activity (%) RNase H
Give the figure together with its unit, number first.

The cases that follow already have their Residual activity (%) RNase H on record.
{"Molecule": "CCCCCCc1c2c(nc3ccc(OC)cc13)-c1cc(C(O)CCC3CCCCC3)c(C)c(=O)n1C2 (stereo not shown) [5 (8Dδ)]", "Property Name": "Residual activity (%) RNase H", "Measured Value": "63%"}
{"Molecule": "Cc1c(C(O)C(C)(C)C)cc2n(c1=O)Cc1c-2nc2ccc(F)cc2c1-c1ccccc1 (stereo not shown) [5 (3Bβ)]", "Property Name": "Residual activity (%) RNase H", "Measured Value": "75%"}
{"Molecule": "Cc1ccc2nc3c(c([Si](C)(C)C)c2c1)Cn1c-3cc(C(=O)C(C)(C)C)c(C)c1=O [5 (5Cβκ)]", "Property Name": "Residual activity (%) RNase H", "Measured Value": "92%"}
{"Molecule": "CCC(O)c1cc2n(c(=O)c1C)Cc1c-2nc2ccc(OC)cc2c1[Si](C)(C)C(C)(C)C (stereo not shown) [5 (4Dα)]", "Property Name": "Residual activity (%) RNase H", "Measured Value": "79%"}
{"Molecule": "CCCCCCc1c2c(nc3ccc(F)cc13)-c1cc(C(O)C(C)(C)C)c(C)c(=O)n1C2 (stereo not shown) [5 (8Bβ)]", "Property Name": "Residual activity (%) RNase H", "Measured Value": "97%"}
{"Molecule": "CCCCCCc1c2c(nc3ccc(OC)cc13)-c1cc(C(=O)C(C)(C)C)c(C)c(=O)n1C2 [5 (8Dβκ)]", "Property Name": "Residual activity (%) RNase H", "Measured Value": "88%"}

Which value of Residual activity (%) RNase H has been reported for Cc1ccc2nc3c(c(-c4ccccc4)c2c1)Cn1c-3cc(C(O)C(C)(C)C)c(C)c1=O (stereo not drawn) [5 (30β)] in the records?
84%

Which value of Residual activity (%) RNase H has been reported for CCCCCCc1c2c(nc3ccc(C)cc13)-c1cc(C(O)Cc3ccccc3)c(C)c(=O)n1C2 (stereo not shown) [5 (8Cε)] in the records?
76%

Which value of Residual activity (%) RNase H has been reported for Cc1c(C(=O)CCC2CCCCC2)cc2n(c1=O)Cc1c-2nc2ccc(F)cc2c1-c1ccccc1 [5 (3Bδκ)] in the records?
93%

Which value of Residual activity (%) RNase H has been reported for Cc1c(C(O)Cc2ccccc2)cc2n(c1=O)Cc1c-2nc2ccc(F)cc2c1[Si](C)(C)C(C)(C)C (stereo not shown) [5 (4Bε)] in the records?
89%

Which value of Residual activity (%) RNase H has been reported for COc1ccc2nc3c(c([Si](C)(C)C)c2c1)Cn1c-3cc(C(O)CCC2CCCCC2)c(C)c1=O (stereo not shown) [5 (5Dδ)] in the records?
96%

Which value of Residual activity (%) RNase H has been reported for CCC(O)c1cc2n(c(=O)c1C)Cc1c-2nc2ccc(OC)cc2c1-c1ccccc1 (stereo not shown) [5 (3Dα)] in the records?
78%

Which value of Residual activity (%) RNase H has been reported for Cc1ccc2nc3c(c(-c4ccccc4)c2c1)Cn1c-3cc(C(O)CCC2CCCCC2)c(C)c1=O (stereo not shown) [5 (30δ)] in the records?
93%

Which value of Residual activity (%) RNase H has been reported for COc1ccc2nc3c(c([Si](C)(C)C)c2c1)Cn1c-3cc(C(O)Cc2ccccc2)c(C)c1=O (stereo not shown) [5 (5Dε)] in the records?
70%

Which value of Residual activity (%) RNase H has been reported for CCC(O)c1cc2n(c(=O)c1C)Cc1c-2nc2ccc(OC)cc2c1[Si](C)(C)C (stereo not shown) [5 (5Dα)] in the records?
78%

Which value of Residual activity (%) RNase H has been reported for Cc1c(C(O)Cc2ccccc2)cc2n(c1=O)Cc1c-2nc2ccc(F)cc2c1-c1ccccc1 (stereo not shown) [5 (3Bε)] in the records?
91%

---

# Test System: RNA-dependent DNA polymerase activity of HIV reverse transcriptase (Human immunodeficiency virus type 1 group M subtype B, UniProt P03366)
# Construct: made in house
# Procedure Details: RNA-dependent DNA polymerase activity assay of HIV reverse transcriptase
# Assay type: biochemical, HIV-1
# Run Conditions: 10 μM inhibitor concentration; activity in presence / in absence of analog x 100
Property Name: Residual activity (%) Polymerase
Please respond with the number in % and leave the unit unwritten.

Which value of Residual activity (%) Polymerase has been reported for Cc1ccc2nc3c(c([Si](C)(C)C)c2c1)Cn1c-3cc(C(O)C(C)(C)C)c(C)c1=O (centres unmarked) in the records?
72

Which value of Residual activity (%) Polymerase has been reported for Cc1c(C(O)Cc2ccccc2)cc2n(c1=O)Cc1c-2nc2ccc(F)cc2c1-c1ccccc1 (centres unmarked) in the records?
28

Which value of Residual activity (%) Polymerase has been reported for COc1ccc2nc3c(c(-c4ccccc4)c2c1)Cn1c-3cc(C(O)CCC2CCCCC2)c(C)c1=O (centres unmarked) in the records?
60

Which value of Residual activity (%) Polymerase has been reported for Cc1c(C(O)Cc2ccccc2)cc2n(c1=O)Cc1c-2nc2ccccc2c1-c1ccccc1 (centres unmarked) in the records?
34

Which value of Residual activity (%) Polymerase has been reported for Cc1c(C(O)CCC2CCCCC2)cc2n(c1=O)Cc1c-2nc2ccc(F)cc2c1[Si](C)(C)C (centres unmarked) in the records?
78

Which value of Residual activity (%) Polymerase has been reported for COc1ccc2nc3c(c([Si](C)(C)C(C)(C)C)c2c1)Cn1c-3cc(C(O)C(C)(C)C)c(C)c1=O (centres unmarked) in the records?
47

Which value of Residual activity (%) Polymerase has been reported for Cc1c(C(O)C(C)(C)C)cc2n(c1=O)Cc1c-2nc2ccc(F)cc2c1[Si](C)(C)C (centres unmarked) in the records?
74

Which value of Residual activity (%) Polymerase has been reported for Cc1c(C(=O)CCC2CCCCC2)cc2n(c1=O)Cc1c-2nc2ccc(F)cc2c1[Si](C)(C)C(C)(C)C in the records?
56

---

# Test System: RNase H activity of HIV reverse transcriptase (Human immunodeficiency virus type 1 group M subtype B, UniProt P03366)
# Construct: 2.5 nM of the p51/p66 RT heterodimer in the assay; made in house
# Procedure Details: Fluorescence (FRET)-based RNase H assay of HIV reverse transcriptase
# Format: biochemical, HIV-1
# Run Conditions: 10 μM inhibitor concentration; activity in presence / in absence of analog x 100
Below, each entry is listed with its recorded Residual activity (%) RNase H.

The cases that follow already have their Residual activity (%) RNase H on record.
{"Compound": "COc1ccc2nc3c(c([Si](C)(C)C)c2c1)Cn1c-3cc(C(O)C(C)(C)C)c(C)c1=O (stereo not drawn)", "Property Name": "Residual activity (%) RNase H", "Measured Value": "102%"}
{"Compound": "Cc1ccc2nc3c(c([Si](C)(C)C(C)(C)C)c2c1)Cn1c-3cc(C(=O)C(C)(C)C)c(C)c1=O", "Property Name": "Residual activity (%) RNase H", "Measured Value": "65%"}
{"Compound": "CCC(=O)c1cc2n(c(=O)c1C)Cc1c-2nc2ccccc2c1-c1ccccc1", "Property Name": "Residual activity (%) RNase H", "Measured Value": "87%"}
{"Compound": "CCCCCCc1c2c(nc3ccccc13)-c1cc(C(O)CC)c(C)c(=O)n1C2 (stereo not drawn)", "Property Name": "Residual activity (%) RNase H", "Measured Value": "83%"}
{"Compound": "CCCCCCc1c2c(nc3ccccc13)-c1cc(C(=O)C(C)(C)C)c(C)c(=O)n1C2", "Property Name": "Residual activity (%) RNase H", "Measured Value": "96%"}
{"Compound": "CCC(=O)c1cc2n(c(=O)c1C)Cc1c-2nc2ccc(OC)cc2c1[Si](C)(C)C(C)(C)C", "Property Name": "Residual activity (%) RNase H", "Measured Value": "77%"}
{"Compound": "CCC(=O)c1cc2n(c(=O)c1C)Cc1c-2nc2ccc(F)cc2c1-c1ccccc1", "Property Name": "Residual activity (%) RNase H", "Measured Value": "94%"}
{"Compound": "Cc1c(C(O)C(C)(C)C)cc2n(c1=O)Cc1c-2nc2ccccc2c1[Si](C)(C)C (stereo not drawn)", "Property Name": "Residual activity (%) RNase H", "Measured Value": "77%"}

Which value of Residual activity (%) RNase H has been reported for Cc1c(C(=O)C(C)(C)C)cc2n(c1=O)Cc1c-2nc2ccccc2c1[Si](C)(C)C(C)(C)C in the records?
70%

Which value of Residual activity (%) RNase H has been reported for Cc1ccc2nc3c(c(-c4ccccc4)c2c1)Cn1c-3cc(C(=O)CCC2CCCCC2)c(C)c1=O in the records?
93%

Which value of Residual activity (%) RNase H has been reported for CCC(=O)c1cc2n(c(=O)c1C)Cc1c-2nc2ccc(C)cc2c1[Si](C)(C)C in the records?
109%

Which value of Residual activity (%) RNase H has been reported for CCCCCCc1c2c(nc3ccc(F)cc13)-c1cc(C(O)CC)c(C)c(=O)n1C2 (stereo not drawn) in the records?
80%

Which value of Residual activity (%) RNase H has been reported for CCC(O)c1cc2n(c(=O)c1C)Cc1c-2nc2ccc(F)cc2c1-c1ccccc1 (stereo not drawn) in the records?
83%

Which value of Residual activity (%) RNase H has been reported for COc1ccc2nc3c(c([Si](C)(C)C(C)(C)C)c2c1)Cn1c-3cc(C(=O)C(C)(C)C)c(C)c1=O in the records?
97%

Which value of Residual activity (%) RNase H has been reported for Cc1ccc2nc3c(c([Si](C)(C)C)c2c1)Cn1c-3cc(C(O)C(C)(C)C)c(C)c1=O (stereo not drawn) in the records?
80%

Which value of Residual activity (%) RNase H has been reported for CCC(O)c1cc2n(c(=O)c1C)Cc1c-2nc2ccc(C)cc2c1[Si](C)(C)C (stereo not drawn) in the records?
62%

Which value of Residual activity (%) RNase H has been reported for CCCCCCc1c2c(nc3ccc(C)cc13)-c1cc(C(=O)CCC3CCCCC3)c(C)c(=O)n1C2 in the records?
95%

Which value of Residual activity (%) RNase H has been reported for Cc1c(C(O)C(C)(C)C)cc2n(c1=O)Cc1c-2nc2ccc(F)cc2c1[Si](C)(C)C (stereo not drawn) in the records?
102%

Which value of Residual activity (%) RNase H has been reported for Cc1c(C(O)CCC2CCCCC2)cc2n(c1=O)Cc1c-2nc2ccc(F)cc2c1[Si](C)(C)C (stereo not drawn) in the records?
103%

// provenance: patent US20040077674A1
